B1: library; a variant is named by its letters at N, in order (parent)
chain: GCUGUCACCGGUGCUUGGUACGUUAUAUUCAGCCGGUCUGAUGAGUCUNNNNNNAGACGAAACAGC

- Variants of: B1
- ASSAY NOTES: normalized RNA/DNA level with ligand (relative to sTRSVctl = 100) (log10 (% of sTRSVctl)); HEK293T overexpressing SLC46A1; ligand concentration (+) RNA-Seq: 6 mM; higher = less ribozyme self-cleavage, higher mRNA level
- EXPERIMENTAL CONDITIONS: with (6R,S)-folinic acid; ligand present: yes
MEASURED ATTRIBUTE: normalized RNA/DNA level with ligand (log10)
One number for each entry.

These solved cases illustrate the format of a correct answer.
VARIANT CODE	RESULT VALUE
AGGUAU	2.04
AAACAG	1.99
UGUAUG	1.96
ACCUCU	2.01
GCACCG	2.05
CCAGAU	2.01

Could you tell me normalized RNA/DNA level with ligand (log10) for each of these variants? They are listed below.
1. UUCAUC
2. CUUCGA
3. GACAGG
4. AACGGG
5. AAGCUU
6. GUCUUA
7. UCCUCA
8. GUGGUC

result:
1.93
2.06
2.02
2.01
2.01
2.03
2.07
2
